Experimental Target: T1, recombinant hSIRPb-His (Antibodies-online, reference ABIN3077231) (human, UniProt Q5TFQ8 30-371)
T1 construct: also called SIRPb-His (Blitz); not shown: His tag
T1 sequence (Q5TFQ8 30-371): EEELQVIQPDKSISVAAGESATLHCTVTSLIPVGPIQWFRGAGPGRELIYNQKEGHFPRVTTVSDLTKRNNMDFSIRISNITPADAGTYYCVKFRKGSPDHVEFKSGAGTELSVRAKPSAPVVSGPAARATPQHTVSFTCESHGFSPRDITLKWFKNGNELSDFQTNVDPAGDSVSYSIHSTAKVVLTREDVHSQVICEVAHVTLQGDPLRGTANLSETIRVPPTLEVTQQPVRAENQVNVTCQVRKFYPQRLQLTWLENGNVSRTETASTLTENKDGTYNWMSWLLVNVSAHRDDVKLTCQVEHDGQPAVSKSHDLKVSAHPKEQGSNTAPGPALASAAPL
Test Details: BLI (Blitz); SIRPb-His on Ni-NTA biosensor, antibody at 20 ug/ml [B, table A]
Decision: kon >= 100000 M⁻¹ s⁻¹ yields YES, all other cases yield NO.

Some entries whose results are on file:
HALA (antibody, human IgG4 S228P, kappa, V domains shown, humanized 18D5 variant; also called humanized 18D5 variant HALA) VH: EVQLVQSGAEVKKPGESLRISCKASGYTFTSYWVHWVRQMPGKGLEWIGNIDPSDSDTHYNQKFKDHVTLSVDKSISTAYLQLSSLKASDTAMYYCVRGGTGTMAWFAYWGQGTLVTVSS VL: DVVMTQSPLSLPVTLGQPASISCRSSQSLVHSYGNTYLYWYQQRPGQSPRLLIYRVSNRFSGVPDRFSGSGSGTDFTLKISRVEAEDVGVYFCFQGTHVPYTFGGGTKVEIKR = YES
HFLB (antibody, human IgG4 S228P, kappa, V domains shown, humanized 18D5 variant) VH: EVQLVQSGAEVKKPGESLRISCKASGYSFTSYWVHWVRQMPGKGLEWMGNIDPSDSDTHYSPSFQGHVTLSVDKSISTAYLQLSSLKASDTAMYYCVRGGTGTMAYFAYWGQGTLVTVSS VL: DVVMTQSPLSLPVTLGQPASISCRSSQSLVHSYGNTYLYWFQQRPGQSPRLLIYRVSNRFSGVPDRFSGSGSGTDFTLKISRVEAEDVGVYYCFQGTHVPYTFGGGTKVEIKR = NO
HFLA (antibody, human IgG4 S228P, kappa, V domains shown, humanized 18D5 variant) VH: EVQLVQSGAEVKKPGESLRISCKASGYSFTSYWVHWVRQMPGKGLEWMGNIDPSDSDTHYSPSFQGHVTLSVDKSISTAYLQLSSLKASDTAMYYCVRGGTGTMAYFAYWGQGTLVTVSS VL: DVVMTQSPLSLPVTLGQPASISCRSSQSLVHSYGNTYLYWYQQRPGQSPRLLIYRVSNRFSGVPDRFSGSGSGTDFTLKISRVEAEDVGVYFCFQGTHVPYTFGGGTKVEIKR = NO

Check this binder for kon at or above 100000 M⁻¹ s⁻¹: Kwar23 (antibody, V domains shown) VH: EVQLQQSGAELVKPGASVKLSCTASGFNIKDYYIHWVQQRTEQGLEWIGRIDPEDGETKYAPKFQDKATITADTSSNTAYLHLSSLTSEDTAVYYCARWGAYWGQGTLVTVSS VL: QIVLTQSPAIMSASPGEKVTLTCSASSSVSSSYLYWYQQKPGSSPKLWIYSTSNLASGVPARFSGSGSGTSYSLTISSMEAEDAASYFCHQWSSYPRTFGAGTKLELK
YES
